Target: T1, PUF4 RNA-binding domain (Saccharomyces cerevisiae, UniProt P25339 537-888)
T1 sequence: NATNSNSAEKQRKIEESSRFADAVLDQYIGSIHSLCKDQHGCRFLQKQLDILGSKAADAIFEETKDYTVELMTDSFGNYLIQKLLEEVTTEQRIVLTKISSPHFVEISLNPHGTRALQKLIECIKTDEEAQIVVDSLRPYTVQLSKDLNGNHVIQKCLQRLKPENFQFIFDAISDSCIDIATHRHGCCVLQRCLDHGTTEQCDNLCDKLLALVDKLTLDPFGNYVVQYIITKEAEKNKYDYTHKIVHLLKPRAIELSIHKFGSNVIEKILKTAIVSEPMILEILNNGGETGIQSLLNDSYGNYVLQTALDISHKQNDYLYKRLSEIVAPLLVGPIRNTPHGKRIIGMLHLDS
Experiment: Mg; RNA-MaP; 20 mM Na-HEPES pH 7.4, 30 mM KOAc, 0.75 mM MgCl2, 0.1% Tween-20, 5% glycerol, 0.1 mg/mL BSA, 2 mM DTT; 25 C; 0.0125-409.6 nM protein
Conditions: tags: N-His6-TEV cleaved; C-SNAP kept, Cy3B-labelled; label: tethered on chip by stalled RNA polymerase
endpoint: pKd
One number for each entry, as −log10 of the molar value.

- binder: "UCUCUUGUUAUAUAUUACUUCUCUU (ssRNA) [Id_ii_S1_P4E.3_K4.2_C4.2_[C-2G]_H4.2_A4.1_F4.1_T4.2_[G10C]]"
  endpoint: "pKd"
  endpoint-result: 7.77

List pKd for every entry below, keeping the order given.
1. UCUCUUGUACACUUAUUAUCUCUCUU (ssRNA) [Id_ii_S1_P5E.4_K5.3_C5.2_[C-2G]_H5.3_A5.1_F5.1_T5.2_[A12C]]
2. Ic_S2_P4E.1_K4.1_C4.1_H4.1_A4.1_[T7C]_F4.1_[T8C]_[A9C]_T4.1 (ssRNA) RNA: UUUGAUUAAUAUGAUAUCGUUCUUUCUUGUAUACCCUUCUUUCUCGAUAUCAUAUUAAUCUUU
3. Ie_S2_P3E.2_K3.1_C3.2_H3.1_[+1TTC]_A3.1_F3.1_T3.2 (ssRNA) RNA: UUUGAUUAAUAUGAUAUCGUUCUUUCUCUUUUCGUAUAUAUAUUCUUUCUCGAUAUCAUAUUAAUCUUU
4. UCUCUUUGUAUACCUCUUAUCUCUU (ssRNA) [Ie_S1_P4E.1_K4.1_C4.1_H4.1_A4.1_[+6CCTC]_F4.1_T4.1]
5. UCUCUUUGUAUACUACUCUCUU (ssRNA) [Ic_S1_P5E.1_K5.1_C5.1_H5.1_A5.1_[T6A]_[A7C]_F5.1_[T9A]_[A10C]_T5.1]

Return:
8.53
7.50
7.44
7.38
8.54

Origin of the recorded values: paper PMC9352680
